The listing below reports IC50 for compounds tested on human TRH-DE (Homo sapiens, UniProt Q9UKU6).
Numbers only, in nM.

Answered examples (3):
>  <COMPOUND>
CC1CCc2[nH]c(=O)ccc2C(=O)N1C1CC2(C1)CN(S(=O)(=O)c1ccccc1F)C2 (stereo not drawn) [Example 339]

>  <RESULT TYPE>
IC50

>  <UNIT ABBREVIATION>
nM

>  <TEST VALUE>
78

$$$$
>  <COMPOUND>
C[C@H]1CCn2nc(C3CC3)cc2C(=O)N1C1CC2(C1)CN(S(=O)(=O)c1ccccc1F)C2 [Example 189]

>  <RESULT TYPE>
IC50

>  <UNIT ABBREVIATION>
nM

>  <TEST VALUE>
68

$$$$
>  <COMPOUND>
Cc1nc2c(s1)C(C)N(C1CC3(C1)CN(S(=O)(=O)c1ccccc1F)C3)C2=O (stereo not drawn) [Example 347]

>  <RESULT TYPE>
IC50

>  <UNIT ABBREVIATION>
nM

>  <TEST VALUE>
185

$$$$

Dear colleague, could you send me IC50 for each of the items below? Thanks.
1. CC1CCc2c(noc2C2CC2)C(=O)N1C1CC2(C1)CN(S(=O)(=O)c1ccccc1F)C2 (stereo not drawn) [Example 104]
2. CC1CCOCC(=O)N1C1CC2(C1)CN(S(=O)(=O)c1ccccc1F)C2 (stereo not drawn) [Example 457]
3. CO[C@H]1CCN(c2ncc3c(n2)OC[C@@H](C)N(C2CC4(C2)CN(S(=O)(=O)c2ccccc2F)C4)C3=O)C1 [Example 393]
4. C[C@@H]1COc2nc(N3CCC3)ncc2C(=O)N1C1CC2(C1)CN(S(=O)(=O)c1ccccc1F)C2 [Example 395]

-- reply
[14, 171, 3, 3]

Dear colleague, could you send me IC50 for each of the items below? Thanks.
1. C[C@@H]1CCc2nc(C3(F)CC3)sc2C(=O)N1C1CC2(C1)CN(S(=O)(=O)c1ccccc1F)C2 [Example 109]
2. CC1CCc2ncc(F)cc2C(=O)N1C1CC2(C1)CN(S(=O)(=O)c1ccccc1F)C2 (racemic) [Example 88]

-- reply
[3, 147]

Dear colleague, could you send me IC50 for each of the items below? Thanks.
1. C[C@@H]1CCN(C)CC(=O)N1C1CC2(C1)CN(S(=O)(=O)c1ccccc1F)C2 [Example 444]
2. CCCC(=O)N1C[C@@H](C)N(C2CC3(C2)CN(S(=O)(=O)c2ccccc2F)C3)C(=O)c2ncccc21 [Example 304]
3. C[C@@H]1COc2cc(C(F)(F)F)ncc2C(=O)N1C1CC2(C1)CN(S(=O)(=O)c1ccccc1F)C2 [Example 24]
4. COc1ccc2c(n1)CCC(C)N(C1CC3(C1)CN(S(=O)(=O)c1ccccc1F)C3)C2=O (racemic) [Example 249]

-- reply
1: 789; 2: 1070; 3: 3; 4: 112

-- ask Reported IC50 for human TRH-DE (Homo sapiens, UniProt Q9UKU6), given C[C@@H]1COc2nccnc2C(=O)N1C1CC2(C1)CN(S(=O)(=O)c1ccccc1F)C2 [Example 8] ?
-- reply 13

###

# ASSAY TARGET: human TRH-DE (Homo sapiens)
# Sequence (Q9UKU6 1-1069): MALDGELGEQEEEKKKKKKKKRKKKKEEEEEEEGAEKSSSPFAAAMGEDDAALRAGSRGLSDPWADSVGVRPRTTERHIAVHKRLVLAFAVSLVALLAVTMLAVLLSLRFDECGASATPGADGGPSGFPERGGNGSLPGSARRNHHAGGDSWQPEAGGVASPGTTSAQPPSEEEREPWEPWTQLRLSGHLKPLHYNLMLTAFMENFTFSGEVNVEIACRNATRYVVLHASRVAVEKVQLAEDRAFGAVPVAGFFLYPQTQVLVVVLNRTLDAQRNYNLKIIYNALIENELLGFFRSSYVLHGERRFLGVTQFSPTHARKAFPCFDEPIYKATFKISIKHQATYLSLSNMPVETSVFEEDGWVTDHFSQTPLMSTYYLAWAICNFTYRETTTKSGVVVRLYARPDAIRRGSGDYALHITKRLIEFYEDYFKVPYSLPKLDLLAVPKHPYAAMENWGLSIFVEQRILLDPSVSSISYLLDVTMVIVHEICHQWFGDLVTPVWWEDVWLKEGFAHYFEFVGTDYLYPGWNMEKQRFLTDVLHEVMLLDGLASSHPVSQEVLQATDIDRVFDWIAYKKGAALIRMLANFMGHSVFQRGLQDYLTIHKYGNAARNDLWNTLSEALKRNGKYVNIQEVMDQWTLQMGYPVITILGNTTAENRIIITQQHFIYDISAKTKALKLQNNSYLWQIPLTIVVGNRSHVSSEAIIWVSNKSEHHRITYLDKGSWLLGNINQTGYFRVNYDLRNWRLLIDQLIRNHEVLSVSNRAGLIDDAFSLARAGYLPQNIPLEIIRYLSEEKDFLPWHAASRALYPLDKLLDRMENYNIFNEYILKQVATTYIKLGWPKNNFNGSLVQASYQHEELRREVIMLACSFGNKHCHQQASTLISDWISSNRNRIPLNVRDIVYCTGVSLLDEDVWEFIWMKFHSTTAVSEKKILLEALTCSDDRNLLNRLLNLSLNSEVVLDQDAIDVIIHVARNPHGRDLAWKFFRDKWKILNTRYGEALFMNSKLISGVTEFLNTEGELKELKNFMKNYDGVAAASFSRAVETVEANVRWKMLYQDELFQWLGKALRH
pIC50: −log10 of the molar value.
Decision: pIC50 >= 8 yields met, all other cases yield not met.

These solved cases illustrate the format of a correct answer.
>  <MOLECULE>
CC1CCc2ncccc2C(=O)N1C1CC2(C1)CN(S(=O)(=O)c1ccccc1F)C2 (racemic)

>  <ASSIGNED LABEL>
not met

$$$$
>  <MOLECULE>
CC1c2ccccc2C(=O)N1C1CC2(C1)CN(S(=O)(=O)c1ccccc1F)C2 (single isomer, unassigned) [Example 359]

>  <ASSIGNED LABEL>
not met

$$$$
>  <MOLECULE>
CC1(O)c2cc(F)cnc2C(=O)N1C1CC2(C1)CN(S(=O)(=O)c1ccccc1F)C2 (racemic)

>  <ASSIGNED LABEL>
not met

$$$$

-- ask For this molecule, is measured pIC50 8 or higher? C[C@@H]1CC[C@H](C)N(C2CC3(C2)CN(S(=O)(=O)c2ccccc2F)C3)C(=O)C1 (racemic)
-- reply not met

-- ask Here is the next molecule: C[C@@H]1COc2cc(N(C)c3ccc(F)cc3)ncc2C(=O)N1C1CC2(C1)CN(S(=O)(=O)c1ccccc1F)C2
-- reply met

-- ask Here is the next molecule: CC1Cc2ncccc2C(=O)N1C1CC2(C1)CN(S(=O)(=O)c1ccccc1F)C2 (racemic)
-- reply not met

###

What pIC50 was measured for each of the following?
# ASSAY TARGET: human TRH-DE (Homo sapiens, UniProt Q9UKU6)
Numbers only, as −log10 of the molar value.

Answered examples (4):
>  <COMPOUND>
CCCN(C(=O)c1nc2ccccc2[nH]1)C1CC2(C1)CN(S(=O)(=O)c1cc(C)ccc1F)C2

>  <ASSAY TARGET>
human TRH-DE (Homo sapiens, UniProt Q9UKU6)

>  <pIC50>
6.46

$$$$
>  <COMPOUND>
C[C@@H]1CCNCC(=O)N1C1CC2(C1)CN(S(=O)(=O)c1ccccc1F)C2

>  <ASSAY TARGET>
human TRH-DE (Homo sapiens, UniProt Q9UKU6)

>  <pIC50>
6.26

$$$$
>  <COMPOUND>
C[C@@H]1COc2cc(N3CCN(C)CC3)ncc2C(=O)N1C1CC2(C1)CN(S(=O)(=O)c1ccccc1F)C2

>  <ASSAY TARGET>
human TRH-DE (Homo sapiens, UniProt Q9UKU6)

>  <pIC50>
8.22

$$$$
>  <COMPOUND>
CC1COc2cnccc2C(=O)N1C1CC2(C1)CN(S(=O)(=O)c1ccccc1F)C2 (racemic)

>  <ASSAY TARGET>
human TRH-DE (Homo sapiens, UniProt Q9UKU6)

>  <pIC50>
7.85

$$$$

Dear colleague, could you send me pIC50 for each of the items below? Thanks.
1. C[C@@H]1COc2cc(Cl)cnc2C(=O)N1C1CC2(C1)CN(S(=O)(=O)c1ccccc1F)C2
2. Cc1ncc2c(n1)OC[C@@H](C)N(C1CC3(C1)CN(S(=O)(=O)c1ccccc1F)C3)C2=O

-- reply
1. 8.70
2. 8.05

###

# ASSAY TARGET: UniProtKB Q9UKU6
# Sequence (Q9UKU6 1-1069): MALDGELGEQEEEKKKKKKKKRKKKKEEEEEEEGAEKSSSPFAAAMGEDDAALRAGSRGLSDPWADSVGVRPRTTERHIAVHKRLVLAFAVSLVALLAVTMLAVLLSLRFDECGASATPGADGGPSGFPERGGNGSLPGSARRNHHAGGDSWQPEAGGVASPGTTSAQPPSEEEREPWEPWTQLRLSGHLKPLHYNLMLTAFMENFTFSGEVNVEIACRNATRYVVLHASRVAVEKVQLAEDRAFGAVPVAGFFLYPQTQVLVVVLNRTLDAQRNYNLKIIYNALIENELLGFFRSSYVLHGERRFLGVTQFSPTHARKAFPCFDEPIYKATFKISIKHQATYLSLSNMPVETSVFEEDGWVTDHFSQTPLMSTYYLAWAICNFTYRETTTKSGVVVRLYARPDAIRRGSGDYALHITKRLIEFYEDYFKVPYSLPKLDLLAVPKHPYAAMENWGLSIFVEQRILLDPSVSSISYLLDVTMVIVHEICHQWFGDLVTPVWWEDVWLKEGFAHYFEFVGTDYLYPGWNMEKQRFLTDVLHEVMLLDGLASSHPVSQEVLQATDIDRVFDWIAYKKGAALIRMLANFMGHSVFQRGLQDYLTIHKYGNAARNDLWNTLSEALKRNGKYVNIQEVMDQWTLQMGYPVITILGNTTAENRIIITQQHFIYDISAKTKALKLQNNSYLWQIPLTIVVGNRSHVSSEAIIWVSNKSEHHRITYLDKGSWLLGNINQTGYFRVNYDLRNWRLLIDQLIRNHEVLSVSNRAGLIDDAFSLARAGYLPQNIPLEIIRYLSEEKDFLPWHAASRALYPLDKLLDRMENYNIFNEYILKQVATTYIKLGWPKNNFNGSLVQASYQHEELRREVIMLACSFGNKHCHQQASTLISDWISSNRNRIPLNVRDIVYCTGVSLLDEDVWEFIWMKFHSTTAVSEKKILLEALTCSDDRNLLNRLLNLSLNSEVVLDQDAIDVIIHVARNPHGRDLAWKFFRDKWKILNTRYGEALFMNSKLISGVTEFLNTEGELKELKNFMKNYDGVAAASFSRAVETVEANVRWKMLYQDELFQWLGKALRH
What pIC50 was measured for each of the following?
Give bare numbers, as −log10 of the molar value.

Answered examples (5):
>  <COMPOUND>
C[C@@H]1COc2nc(N3CC(C#N)C3)ncc2C(=O)N1C1CC2(C1)CN(S(=O)(=O)c1ccccc1F)C2

>  <TEST VALUE>
8.10

$$$$
>  <COMPOUND>
C[C@@H]1CCN(C(=O)c2cc[nH]n2)CC(=O)N1C1CC2(C1)CN(S(=O)(=O)c1ccccc1F)C2

>  <TEST VALUE>
7.19

$$$$
>  <COMPOUND>
Cc1nnc2n1CC[C@@H](C)N(C1CC3(C1)CN(S(=O)(=O)c1ccccc1F)C3)C2=O

>  <TEST VALUE>
7.01

$$$$
>  <COMPOUND>
COC1CCN(c2ncc3c(n2)OC[C@@H](C)N(C2CC4(C2)CN(S(=O)(=O)c2ccccc2F)C4)C3=O)CC1

>  <TEST VALUE>
8.40

$$$$
>  <COMPOUND>
C[C@@H]1COc2nc(N3CCCCC3)ncc2C(=O)N1C1CC2(C1)CN(S(=O)(=O)c1ccccc1F)C2

>  <TEST VALUE>
8.40

$$$$

Dear colleague, could you send me pIC50 for each of the items below? Thanks.
1. COc1cccc(S(=O)(=O)N2CC3(CC(N4C(=O)c5cccnc5OCC4C)C3)C2)c1 (racemic)
2. C[C@@H]1CCN(C(=O)c2cccs2)CC(=O)N1C1CC2(C1)CN(S(=O)(=O)c1ccccc1F)C2

-- reply
1: 6.04; 2: 7.09
